Values compiled from patent US20130295102A1.

- systemName: T1, Human Factor P (human, UniProt P27918 29-469)
- T1 construct: Bought protein (Complement Technology cat# A139) in SET and Biacore; Factor P of human serum in the functional assays; also called FP; human FP
- T1 sequence (P27918 29-469 limits assumed): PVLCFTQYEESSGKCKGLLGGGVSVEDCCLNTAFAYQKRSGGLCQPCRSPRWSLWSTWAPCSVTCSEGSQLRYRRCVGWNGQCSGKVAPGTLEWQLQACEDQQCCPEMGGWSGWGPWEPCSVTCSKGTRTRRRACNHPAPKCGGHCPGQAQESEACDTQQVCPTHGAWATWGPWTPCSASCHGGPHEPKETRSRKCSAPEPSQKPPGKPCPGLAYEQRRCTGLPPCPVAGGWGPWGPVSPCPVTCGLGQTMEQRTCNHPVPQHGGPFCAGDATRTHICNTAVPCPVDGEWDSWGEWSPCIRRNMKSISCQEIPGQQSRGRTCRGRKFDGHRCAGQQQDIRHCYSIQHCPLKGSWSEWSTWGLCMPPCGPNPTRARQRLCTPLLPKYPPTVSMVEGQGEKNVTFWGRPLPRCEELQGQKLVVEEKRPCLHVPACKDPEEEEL
- assayComment: Biacore SPR, captured Factor P
# maps each entry to its kon
Respond numerically; units are M⁻¹ s⁻¹ and should not be typed.

NVS806 (Fab, V domains shown) VH: EVQLVQSGAEVKKPGSSVKVSCKASGGTFSSYAISWVRQAPGQGLEWMGRIIPIFGTANYAQKFQGRVTITADESTSTAYMELSSLRSEDTAVYYCARHGGYVFDSWGQGTLVTVSS VL: SYELTQPPSVSVAPGQTARISCSGDNLGSKYVDWYQQKPGQAPVLVIYSDNNRPSGIPERFSGSNSGNTATLTISGTQAEDEADYYCQTYTSGNNYLVFGGGTKLTVLG    434000
NVS965 (Fab, V domains shown, Disulfide-bridged Fab; also called Fab NVS965) VH: EVQLVQSGAEVKKPGSSVKVSCKASGGTFNSYAISWVRQAPGQGLEWMGRIIPIFGTANYAQKFQGRVTITADESTSTAYMELSSLRSEDTAVYYCARHGGYSFDSWGQGTLVTVSS VL: SYVLTQPPSVSVAPGKTARISCSGDNLGSKYVDWYQQKPGQAPVLVIYSDNNRPSGIPERFSGSNSGNTATLTISGTQAMDEADYYCATYDSSPRTEVFGGGTKLTVLG    2.65e+06

Continue with the binder presented below.
QUERY: Need kon of NVS962-G (Fab, V domains shown, NVS962 with heavy chain N30 replaced with glycine) VH: EVQLVQSGAEVKKPGSSVKVSCKASGGTFGSYAISWVRQAPGQGLEWMGRIIPIFGTANYAQKFQGRVTITADESTSTAYMELSSLRSEDTAVYYCARHGGYSFDSWGQGTLVTVSS VL: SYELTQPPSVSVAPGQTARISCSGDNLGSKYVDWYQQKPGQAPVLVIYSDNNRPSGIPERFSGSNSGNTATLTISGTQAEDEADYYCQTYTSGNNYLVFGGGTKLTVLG , thanks.
RESULT: 387000
